This collection of values is drawn from patent US20220280594A1.

# Tested on: human pancreatic cancer cells (PANC-1)
# protocol text: transwell invasion assay, PANC-1 cells
# Assay type: cell-based
# protocol conditions: PANC-1 transwell invasion, 10 μM, 24 hours; control group 727 ± 68
Ends that are not written are not given here. PEG = not defined here
measurement name: Number of cells (mean ± SD, P), invaded cells

Look over these answered cases.
INSERT INTO measurements (substance, result) VALUES
  ('N27: SEQ ID NO: 1 with addition of one amino acid at the carboxyl terminal and PEG modification at the carboxyl terminal (YRVRFLAKENVTQDAEDNC-{PEG}; reading uncertain)', '242 ± 35,****'),
  ('N9: SEQ ID NO: 1 with deletion of positions 15-18 and PEG modification at the amino terminal ({PEG}-YRVRFLAKENVTQD; reading uncertain)', '93 ± 6,****'),
  ('N25: SEQ ID NO: 1 with substitution N18R and addition of two amino acids at the carboxyl terminal (YRVRFLAKENVTQDAEDRCT)', '247 ± 17,****'),
  ('N24: SEQ ID NO: 1 with substitution A7R, deletion of positions 1-2 and of position 18 (VRFLRKENVTQDAED)', '226 ± 18,****');

Req: Please report Number of cells (mean ± SD, P), invaded cells for the following substance: N48: SEQ ID NO: 1 with A7R, deletion of position 11 and position 18, PEG modification at the carboxyl terminal (YRVRFLRKENTQDAED-{PEG}; reading uncertain)
Resp: 149 ± 12,****
